Every entry's value here was drawn from ChEMBL document CHEMBL3393039.

test: Metabolic stability in Sprague-Dawley rat liver microsomes assessed as parent compound remaining at 10 uM measured after 60 mins in presence of NADPH regenerating system by HPLC method (reference value: 97.6 +/- 0.8%); assay type: ADME; settings: read-out: Stability
test readout: remaining at 1 h, 10 µM (%)
Output spec: scalar in %, unitless text.

Summary for this molecule, O=C(O)Cc1cccc(NC(=O)c2ccccc2NC(=O)c2ccc3ccccc3c2)c1 : remaining at 1 h, 10 µM is 80.5

----------
test: Cytotoxic activity against human HepG2 cells assessed as LDH release at 30 uM after 48 hrs by LDH release assay (reference value: 100%)
test readout: LDH release (% cytotoxicity) at 48 h, 30 µM (%)
Output spec: scalar in %, unitless text.

Past entries and their recorded results:
O=C(O)Cc1cccc(NC(=O)c2ccccc2NC(=O)c2ccc(-c3ccccc3)cc2)c1; 72.9
Cc1ccc(NC(=O)c2ccccc2NC(=O)c2ccc(C(C)(C)C)cc2)cc1C(=O)O; 28.4
O=C(O)Cc1cccc(NC(=O)c2ccccc2NC(=O)c2ccc3ccccc3c2)c1; 23.3

Kindly consider the entry below.
Summary for this molecule, Cc1ccc(C(=O)O)cc1NC(=O)c1ccccc1NC(=O)c1ccc(C(C)(C)C)cc1 : LDH release (% cytotoxicity) at 48 h, 30 µM is 37.3
